This collection of values is drawn from patent US20260092057A1.

Entries and their IC50 values follow.
# Tested on: Caki-2 cells
# procedure_text: CTG (CellTiter-Glo) cell viability assay, Caki-2
# Assay type: cell-based
# condition_description: Homo sapiens, CAKI-2, 72 h, Caki-2, 3-day; read-out: CTG Chempartner/PHA- Caki-2 3-day: Average external-IC50

Example entries and their recorded answers appear below.
Cc1ncsc1-c1ccc([C@H](C)NC(=O)[C@@H]2C[C@@H](N)CN2C(=O)[C@@H](NC(=O)C2CCN(CCCNc3ccc(S(=O)(=O)NC(=O)c4ccc(N5CCC([C@H](O)c6ccccc6-c6ccc(Cl)cc6)CC5)cc4Oc4cnc5[nH]ccc5c4)cc3S(=O)(=O)C(F)(F)F)CC2)C(C)(C)C)cc1	> 30 µM
Cc1ncsc1-c1ccc([C@H](C)NC(=O)[C@@H]2C[C@@H](O)CN2C(=O)[C@@H](NC(=O)CCCCCCN2CCN(CCCNc3ccc(S(=O)(=O)NC(=O)c4ccc(N5CCN(CC6=C(c7ccc(Cl)cc7)CC(C)(C)CC6)CC5)cc4Oc4cnc5[nH]ccc5c4)cc3S(=O)(=O)C(F)(F)F)CC2)C(C)(C)C)cc1	> 30 µM

Lab note: next compound to report on.
Query Cc1ncsc1-c1ccc([C@H](C)NC(=O)[C@@H]2C[C@@H](O)CN2C(=O)[C@@H](NC(=O)CCCCCC(=O)N[C@H]2CCN(CCCNc3ccc(S(=O)(=O)NC(=O)c4ccc(N5CCN(CC6=C(c7ccc(Cl)cc7)CC(C)(C)CC6)CC5)cc4Oc4cnc5[nH]ccc5c4)cc3S(=O)(=O)C(F)(F)F)C2)C(C)(C)C)cc1 yields IC50 of > 30 µM

* * *

Entries and their IC50 values follow.
# Tested on: Caki-2 cells
# procedure_text: CTG (CellTiter-Glo) cell viability assay, Caki-2
# Format: cell-based
# condition_description: Homo sapiens, CAKI-2, 72 h, Caki-2, 3-day; read-out: CTG Chempartner/PHA- Caki-2 3-day: Average external-IC50

Example entries and their recorded answers appear below.
Cc1ncsc1-c1ccc([C@H](C)NC(=O)[C@@H]2C[C@@H](O)CN2C(=O)[C@@H](NC(=O)CCCCCC(=O)N2CC3(CN(CCCNc4ccc(S(=O)(=O)NC(=O)c5ccc(N6CCN(CC7=C(c8ccc(Cl)cc8)CC(C)(C)CC7)CC6)cc5Oc5cnc6[nH]ccc6c5)cc4S(=O)(=O)C(F)(F)F)C3)C2)C(C)(C)C)cc1	> 30 µM
Cc1ncsc1-c1ccc([C@H](C)NC(=O)[C@@H]2C[C@@H](O)CN2C(=O)[C@@H](NC(=O)CCCCCCC(=O)N2CCN(C[C@]3(C)CCC(c4ccc(Cl)cc4)=C(CN4CCN(c5ccc(C(=O)NS(=O)(=O)c6ccc(NCCCN7CCOCC7)c(S(=O)(=O)C(F)(F)F)c6)c(Oc6cnc7[nH]ccc7c6)c5)CC4)C3)CC2)C(C)(C)C)cc1	10 to 30 µM

Lab note: next compound to report on.
Let me check: Cc1ncsc1-c1ccc([C@H](C)NC(=O)[C@@H]2C[C@@H](O)CN2C(=O)[C@@H](NC(=O)CCCCCCC(=O)N2CCN(C[C@]3(C)CCC(c4ccc(Cl)cc4)=C(CN4CCN(c5ccc(C(=O)NS(=O)(=O)c6ccc(NCCN7CCOCC7)c(S(=O)(=O)C(F)(F)F)c6)c(Oc6cnc7[nH]ccc7c6)c5)CC4)C3)CC2)C(C)(C)C)cc1 , system Caki-2 cells, measured IC50 is > 30 µM
